The values you see were collected from the supplement of paper PMC10567573.

B1: FCHSD1 (parent)
chain: LQEPGVFSPTPPQQFQPAGTDQVC

variants of: B1; experiment: protein stability index of a GFP-peptide fusion (GPS, HEK-293T) (PSI 1-6); higher = more stable; conditions: c terminus: a fixed tail appended;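 note: lentivirally expressed fusions sorted by FACS into six bins by GFP to DsRed ratio, PSI derived from sequencing read proportions per bin multiplied by bin number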
measured_endpoint: protein stability index
The reply should be a number, written without any unit.

Answered cases to consult:
mut: P12K
value: 4.05
//
mut: P9W
value: 3.67
//
mut: P11H
value: 4.09

Qu. Specify reported protein stability index for the variant shown: "P11V"
Ans. 4.43

Qu. Specify reported protein stability index for the variant shown: "P9E"
Ans. 4.7

Qu. Specify reported protein stability index for the variant shown: "Q13E"
Ans. 3.75

Qu. Specify reported protein stability index for the variant shown: "Q13G"
Ans. 3.89
